Assay: Pharmacokinetic study in male ICR mice
Format: in vivo, mouse
Conditions: plasma, Mouse PO, dose 10 mg/kg, read-out: F(%) bioavailability
Quantity Kind: bioavailability
# output: number + unit

Input line: Assign bioavailability to the following record: Cc1[nH]c2nc(C(C)N3CCN(c4ccccc4)CC3)nn2c(=O)c1Cc1ccc(F)cc1 (stereo not shown)
Output line: 30.2%

* * *

Target: human PTGR2 (hPTGR2) (Homo sapiens)
Sequence (Q8N8N7 whole entry): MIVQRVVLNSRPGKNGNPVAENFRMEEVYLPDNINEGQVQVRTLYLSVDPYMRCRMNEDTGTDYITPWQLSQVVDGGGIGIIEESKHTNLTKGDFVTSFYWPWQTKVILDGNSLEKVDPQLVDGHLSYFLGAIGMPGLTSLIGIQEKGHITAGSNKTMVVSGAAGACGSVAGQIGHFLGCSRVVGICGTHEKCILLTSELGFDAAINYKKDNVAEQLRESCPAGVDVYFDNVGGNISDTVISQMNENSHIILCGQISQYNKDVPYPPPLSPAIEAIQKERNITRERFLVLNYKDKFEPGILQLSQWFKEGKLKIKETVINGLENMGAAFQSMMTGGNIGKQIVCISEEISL
Test: Recombinant human PTGR2 enzymatic inhibition (NADPH-Glo), IC50
Conditions: human PTGR2 enzymatic activity
Quantity Kind: IC50 (nM)
# value in nM; strip the unit string

Input line: Assign IC50 to the following record: Cc1[nH]c2nc(C(C)N3CCN(c4ccccc4)CC3)nn2c(=O)c1Cc1ccc(F)cc1 (stereo not shown)
Output line: 8.92

* * *

Test: Pharmacokinetic study in male ICR mice
Type: in vivo, mouse
Conditions: plasma, Mouse PO, dose 10 mg/kg
Quantity Kind: Cmax (ng/mL)
# value in ng/mL; strip the unit string

Input line: Assign Cmax to the following record: Cc1[nH]c2nc(C(C)N3CCN(c4ccccc4)CC3)nn2c(=O)c1Cc1ccc(F)cc1 (stereo not shown)
Output line: 398

* * *

Assay: Pharmacokinetic study in male ICR mice
Format: in vivo, mouse
Conditions: plasma, Mouse IV, dose 2 mg/kg
Quantity Kind: half-life (h)
# value in h; strip the unit string

Input line: Assign half-life to the following record: Cc1[nH]c2nc(C(C)N3CCN(c4ccccc4)CC3)nn2c(=O)c1Cc1ccc(F)cc1 (stereo not shown)
Output line: 2

* * *

Experiment: Pharmacokinetic study in male ICR mice
Type: in vivo, mouse
Settings: plasma, Mouse PO, dose 10 mg/kg
Quantity Kind: AUC(0-inf) (ng·h/mL)
# value in ng·h/mL; strip the unit string

Input line: Assign AUC(0-inf) to the following record: Cc1[nH]c2nc(C(C)N3CCN(c4ccccc4)CC3)nn2c(=O)c1Cc1ccc(F)cc1 (stereo not shown) [BPRPT0245]
Output line: 725

* * *

Molecular target: hPTGR2 (Homo sapiens)
Sequence (Q8N8N7 whole entry): as above
Test: 15-keto-PGE2-dependent PPARγ trans-activation in PTGR2-transfected HEK293T cells
Conditions: restoring 15-keto-PGE2-dependent PPARγ trans-activation, HEK293T expressing recombinant PTGR2
Quantity Kind: EC50 (nM)
# value in nM; strip the unit string

Input line: Please respond with reported EC50 (system hPTGR2 (Homo sapiens)) for Cc1[nH]c2nc(C(C)N3CCN(c4ccccc4)CC3)nn2c(=O)c1Cc1ccc(F)cc1 (stereo not shown) [BPRPT0245] .
Output line: 49.2

* * *

Assay: Pharmacokinetic study in male ICR mice
Format: in vivo, mouse
Conditions: plasma, Mouse PO, dose 10 mg/kg
Quantity Kind: Tmax (min)
# value in min; strip the unit string

Input line: Assign Tmax to the following record: Cc1[nH]c2nc(C(C)N3CCN(c4ccccc4)CC3)nn2c(=O)c1Cc1ccc(F)cc1 (stereo not shown) [BPRPT0245]
Output line: 24
